All figures here come from patent US8741906B2.

Molecular target: human CB2 receptors (Homo sapiens, UniProt P34972)
Construct: expressed in transfected cells; host or cells: CHO cells
Sequence (P34972 whole entry): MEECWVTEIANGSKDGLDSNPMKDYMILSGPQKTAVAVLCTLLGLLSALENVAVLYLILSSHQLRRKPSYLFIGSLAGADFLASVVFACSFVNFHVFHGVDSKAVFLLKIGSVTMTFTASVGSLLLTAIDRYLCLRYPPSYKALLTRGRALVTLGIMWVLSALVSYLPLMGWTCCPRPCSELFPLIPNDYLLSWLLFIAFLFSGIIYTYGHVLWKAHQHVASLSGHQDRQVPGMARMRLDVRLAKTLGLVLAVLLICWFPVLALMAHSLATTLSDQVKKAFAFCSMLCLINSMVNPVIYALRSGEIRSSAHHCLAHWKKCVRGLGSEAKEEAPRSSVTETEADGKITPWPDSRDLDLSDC
Test: functional cAMP assay, human CB2
Format: cell-based
Conditions: CHO cells expressing human CB2, cAMP; read-out: human CB2 EC50
For each entry below, report its pEC50 value.
Just the number, please; pEC50 means minus log10 of the concentration in mol/L.

get_value(item= CC(C)(C)c1nc(N2CCC23COC3)c2nnn(Cc3ccccc3Cl)c2n1 , readout=pEC50) returns 8.44

get_value(item= CC(C)(C)c1nc(N2CCC[C@@H](O)C2)c2nnn(Cc3ccccc3Cl)c2n1 , readout=pEC50) returns 7.56

get_value(item= CC(C)(C)c1nc(N2CCC(F)(F)C2)c2nnn([C@H]3CCOC3)c2n1 , readout=pEC50) returns 9.30

get_value(item= CC(C)(C)c1nc(N2CCC(F)(F)C2)c2nnn(Cc3cccc(F)c3Cl)c2n1 , readout=pEC50) returns 9.52

get_value(item= Cc1noc(Cn2nnc3c(N4CC[C@](C)(O)C4)nc(C(C)(C)C)nc32)n1 , readout=pEC50) returns 7.24

get_value(item= CC(C)(C)c1nc(N2CCC(F)(F)C2)c2nnn(CC(=O)c3ccccc3Cl)c2n1 , readout=pEC50) returns 9.70

get_value(item= C[C@H](c1ccccc1Cl)n1nnc2c(N3CCC(F)(F)C3)nc(C(C)(C)C)nc21 , readout=pEC50) returns 9.40

get_value(item= CC(C)(C)c1nc(OC2CCCC2)c2nnn(Cc3ccccc3Cl)c2n1 , readout=pEC50) returns 7.66

get_value(item= Cc1nnc(Cn2nnc3c(N4CC[C@@](C)(O)C4)nc(C(C)(C)C)nc32)o1 , readout=pEC50) returns 6.76

get_value(item= CC(C)(C)c1nc(N2CCC(O)C2)c2nnn(Cc3ccccc3Cl)c2n1 (stereo not shown) [Example 204] , readout=pEC50) returns 9.30

get_value(item= Cn1nnnc1Cn1nnc2c(N3CC4(COC4)C3)nc(C(C)(C)C)nc21 , readout=pEC50) returns 7.86

get_value(item= Cn1ncnc1Cn1nnc2c(N3CC[C@H](O)C3)nc(C(C)(C)C)nc21 , readout=pEC50) returns 7.98

get_value(item= Cc1noc(Cn2nnc3c(N4CC5(COC5)C4)nc(C(C)(C)C)nc32)n1 , readout=pEC50) returns 7.28

get_value(item= CC(C)(C)c1nc(N2CCC(F)(F)C2)c2nnn(Cc3cc(Cl)ccc3Cl)c2n1 , readout=pEC50) returns 9.52

get_value(item= CC(C)(C)c1nc(N2CCC(F)(F)C2)c2nnn(Cc3cccnc3Cl)c2n1 , readout=pEC50) returns 10.00

get_value(item= CC(C)(C)c1nc(N2CC[C@@](C)(O)C2)c2nnn(CCC(F)(F)F)c2n1 , readout=pEC50) returns 7.43

get_value(item= CC(C)(C)c1nc(N2CCC(F)(F)C2)c2nnn(Cc3ccccc3Cl)c2n1 , readout=pEC50) returns 9.70

get_value(item= Cn1c(Cn2nnc3c(N4CCC(F)(F)C4)nc(C(C)(C)C)nc32)nnc1S(C)(=O)=O , readout=pEC50) returns 8.36

get_value(item= Cn1nnnc1Cn1nnc2c(N3CC[C@H](O)[C@@H]3CO)nc(C(C)(C)C)nc21 , readout=pEC50) returns 7.27

get_value(item= CC(C)(C)c1nc(N2CC[C@H](O)C2)c2nnn(Cc3ccccc3)c2n1 , readout=pEC50) returns 8.48

get_value(item= CC(C)(C)c1nc(N2CCC(F)(F)C2)c2nnn(Cc3ccccc3C#N)c2n1 , readout=pEC50) returns 10.00

get_value(item= CC(C)(C)c1nc(N2CCCC2)c2nnn(Cc3ccccc3Cl)c2n1 , readout=pEC50) returns 9.52

get_value(item= Cn1ccc(C2CCCN2c2nc(C(C)(C)C)nc3c2nnn3Cc2ccccc2Cl)n1 (stereo not shown) , readout=pEC50) returns 6.75

get_value(item= Cc1nnc(Cn2nnc3c(N4CCC(F)(F)C4)nc(C(C)(C)C)nc32)n1C , readout=pEC50) returns 9.30

get_value(item= CC(C)(C)c1nc(N2CCCOCC2)c2nnn(Cc3ccccc3Cl)c2n1 , readout=pEC50) returns 8.62

get_value(item= CC(C)(C)c1nc(N2CCC(F)(F)C2)c2nnn(Cc3ccccc3Br)c2n1 , readout=pEC50) returns 10.00

get_value(item= CC(C)(C)c1nc(N2CCC[C@H]2CO)c2nnn(Cc3ccccc3Cl)c2n1 , readout=pEC50) returns 7.74

get_value(item= CC(C)(C)c1nc(N2C[C@@H](O)[C@@H](O)C2)c2nnn(Cc3ccccc3Cl)c2n1 , readout=pEC50) returns 7.78

get_value(item= CC(C)(C)c1nc(N2CCC(F)(F)C2)c2nnn(CCc3cccnc3)c2n1 , readout=pEC50) returns 9.52

get_value(item= CC(C)(C)c1nc(N2CC[C@](C)(O)C2)c2nnn(Cc3ccccc3C(F)(F)F)c2n1 , readout=pEC50) returns 9.10

get_value(item= CC(C)(C)c1nc(N2CCC(F)(F)C2)c2nnn(Cc3nccc(Cl)c3Cl)c2n1 , readout=pEC50) returns 9.52

get_value(item= CC(C)(C)c1nc(N2CCC(F)(F)C2)c2nnn(Cc3c(F)ccc(Cl)c3Cl)c2n1 , readout=pEC50) returns 9.70

get_value(item= CC(C)(C)c1nc(N2CCC(F)(F)C2)c2nnn(Cc3cc(F)ccc3Cl)c2n1 , readout=pEC50) returns 9.30

get_value(item= Cn1nnnc1Cn1nnc2c(N3CCC(F)(F)C3)nc(C(C)(C)C)nc21 , readout=pEC50) returns 10.00

###

For each entry below, report its pEC50 value.
Target: human CB2 receptors (Homo sapiens, UniProt P34972)
Construct: expressed in transfected cells; host or cells: CHO cells
Assay: functional cAMP assay, human CB2
Assay type: cell-based
Details: CHO cells expressing human CB2, cAMP; read-out: human CB2 EC50
Just the number, please; pEC50 means minus log10 of the concentration in mol/L.

get_value(item= COC1CN(c2nc(C(C)(C)C)nc3c2nnn3Cc2ccccc2Cl)C1 [Example 15] , readout=pEC50) returns 8.49

get_value(item= CC(=O)N[C@@H]1CCN(c2nc(C(C)(C)C)nc3c2nnn3Cc2ccccc2Cl)C1 [Example 193] , readout=pEC50) returns 6.23

get_value(item= CC(C)(C)c1nc(N2CCC(F)(F)C2)c2nnn(C3CCS(=O)(=O)C3)c2n1 (stereo not shown) [Example 126] , readout=pEC50) returns 9.52

get_value(item= CC(C)(C)c1nc(N2CCCCO2)c2nnn(Cc3ccccc3Cl)c2n1 [Example 39] , readout=pEC50) returns 8.10

###

Molecular target: human CB1 receptors (Homo sapiens, UniProt P21554)
Construct: expressed in transfected cells; host or cells: CHO cells
Sequence (P21554 whole entry): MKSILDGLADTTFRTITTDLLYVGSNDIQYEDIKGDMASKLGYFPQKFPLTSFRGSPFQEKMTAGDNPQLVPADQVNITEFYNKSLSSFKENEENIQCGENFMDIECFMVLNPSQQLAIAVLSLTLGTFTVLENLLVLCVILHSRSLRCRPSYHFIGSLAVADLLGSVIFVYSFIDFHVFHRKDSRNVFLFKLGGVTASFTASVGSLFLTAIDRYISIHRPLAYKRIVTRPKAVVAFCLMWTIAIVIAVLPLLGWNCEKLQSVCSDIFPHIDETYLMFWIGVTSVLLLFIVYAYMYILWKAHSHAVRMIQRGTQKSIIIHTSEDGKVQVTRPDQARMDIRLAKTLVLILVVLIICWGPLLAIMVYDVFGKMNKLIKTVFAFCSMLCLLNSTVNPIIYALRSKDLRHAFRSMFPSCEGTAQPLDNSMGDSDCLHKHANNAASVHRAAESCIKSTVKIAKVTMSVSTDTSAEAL
Assay: functional cAMP assay, human CB1
Assay type: cell-based
Conditions: CHO cells expressing human CB1, cAMP; read-out: human CB1 EC50
READOUT: pEC50
Just the number, please; pEC50 means minus log10 of the concentration in mol/L.

get_value(item= CC(C)(C)c1nc(N2CCC(F)(F)C2)c2nnn(Cc3nc(Cl)ccc3Cl)c2n1 , readout=pEC50) returns 6.96

get_value(item= CC(C)(C)c1nc(N2CCC(F)(F)C2)c2nnn(Cc3ccccc3Br)c2n1 , readout=pEC50) returns 7.08

get_value(item= CC(C)(C)c1nc(N2CCOCC2)c2nnn(Cc3ccccc3Cl)c2n1 , readout=pEC50) returns 5.97

get_value(item= CC(C)(C)c1nc(N2CCC[C@@H]2CO)c2nnn(Cc3ccccc3Cl)c2n1 , readout=pEC50) returns 6.31

get_value(item= CC(C)(C)c1nc(N2CCC[C@H]2C#N)c2nnn(Cc3ccccc3Cl)c2n1 , readout=pEC50) returns 6.86

get_value(item= CC(C)(C)c1nc(N2CCC(F)(F)C2)c2nnn(Cc3ccncc3)c2n1 , readout=pEC50) returns 7.01

get_value(item= CC(C)(C)c1nc(N2CCC(F)(F)CC2)c2nnn(Cc3ccccc3Cl)c2n1 , readout=pEC50) returns 6.80

get_value(item= C[C@@H](c1ccccc1Cl)n1nnc2c(N3CCC(F)(F)C3)nc(C(C)(C)C)nc21 , readout=pEC50) returns 6.57

get_value(item= Cn1nncc1Cn1nnc2c(N3CCC(F)(F)C3)nc(C(C)(C)C)nc21 , readout=pEC50) returns 5.65

###

Target: human CB2 receptors (Homo sapiens, UniProt P34972)
Construct: expressed in transfected cells; host or cells: CHO cells
Assay: functional cAMP assay, human CB2
Type: cell-based
Settings: CHO cells expressing human CB2, cAMP; read-out: human CB2 EC50
For each entry below, report its pEC50 value.
Just the number, please; pEC50 means minus log10 of the concentration in mol/L.

get_value(item= CC(C)(C)c1nc(N2CCC(F)(F)C2)c2nnn(Cc3nc(Cl)ccc3Cl)c2n1 , readout=pEC50) returns 10.00

get_value(item= CC(C)(C)c1nc(N2CC[C@H](O)C2)c2nnn(Cc3ccccc3Cl)c2n1 , readout=pEC50) returns 8.96

get_value(item= COc1ccccc1Cn1nnc2c(N3CCC(F)(F)C3)nc(C(C)(C)C)nc21 , readout=pEC50) returns 10.00

get_value(item= CC(C)(C)c1nc(N2CCC(F)(F)C2)c2nnn(Cc3c(C(F)(F)F)ccc(Cl)c3Cl)c2n1 , readout=pEC50) returns 9.10

get_value(item= CC(C)(C)c1nc(N2CC[C@H](O)[C@@H]2CO)c2nnn(Cc3ccccc3Cl)c2n1 , readout=pEC50) returns 8.62

get_value(item= CC(C)(C)c1nc(N2CC[C@@H](O)C2)c2nnn(Cc3ccccc3Cl)c2n1 , readout=pEC50) returns 8.29

get_value(item= CC(C)(C)c1nc(N2CC(F)(F)C[C@@H]2CO)c2nnn(Cc3ccccc3Cl)c2n1 , readout=pEC50) returns 9.00

get_value(item= CC(=O)N[C@H]1CCN(c2nc(C(C)(C)C)nc3c2nnn3Cc2ccccc2Cl)C1 , readout=pEC50) returns 7.66

get_value(item= Cn1nncc1Cn1nnc2c(N3CC[C@H](O)C3)nc(C(C)(C)C)nc21 , readout=pEC50) returns 8.60

get_value(item= CC(C)(C)c1nc(N2CC3(COC3)C2)c2nnn(Cc3nnnn3C3CC3)c2n1 , readout=pEC50) returns 8.38

get_value(item= CNC1CCN(c2nc(C(C)(C)C)nc3c2nnn3Cc2ccccc2Cl)C1 (centres unmarked) , readout=pEC50) returns 7.14

get_value(item= Cc1nonc1Cn1nnc2c(N3CC[C@H](O)[C@@H]3CO)nc(C(C)(C)C)nc21 , readout=pEC50) returns 9.10

get_value(item= Cn1ncnc1Cn1nnc2c(N3CCC(F)(F)C3)nc(C(C)(C)C)nc21 , readout=pEC50) returns 9.15

get_value(item= CC(C)(C)c1nc(N2CCC(F)(F)C2)c2nnn(Cc3cccc(Cl)c3)c2n1 , readout=pEC50) returns 9.05

get_value(item= Cc1nnc(Cn2nnc3c(N4CC[C@H](O)C4)nc(C(C)(C)C)nc32)o1 , readout=pEC50) returns 7.44

get_value(item= CCNc1nc(C(C)(C)C)nc2c1nnn2Cc1ccccc1Cl , readout=pEC50) returns 7.95

get_value(item= CC(C)(C)c1nc(N2CCC(F)(F)CC2)c2nnn(Cc3ccccc3Cl)c2n1 , readout=pEC50) returns 8.89
